The measured values listed here are drawn from patent US20070049564A1.

Recorded measurements of log10 of MIC, one per entry
System: S. agalactiae GC 4564
Assay: MIC, broth microdilution
Conditions: Streptococcus agalactiae, GC4564, S. agalactiae GC 4564; Water pre-incubation
Scale: decimal log of MIC, MIC in µg/mL.

Solved entries:
>  <COMPOUND>
CCCN(CC(=O)Nc1cc(N(C)C)c2c(c1O)C(=O)C1=C(O)[C@]3(O)C(=O)C(C(N)=O)=C(O)[C@@H](N(C)C)[C@@H]3C[C@@H]1C2)C(=O)OCOC(=O)c1ccc(F)cc1 [Example 8]

>  <log10 of MIC>
-0.30

$$$$
>  <COMPOUND>
CCCN(CC(=O)Nc1cc(N(C)C)c2c(c1O)C(=O)C1=C(O)[C@]3(O)C(=O)C(C(N)=O)=C(O)[C@@H](N(C)C)[C@@H]3C[C@@H]1C2)C(=O)OCOC(=O)C(C)(C)C [Example 9]

>  <log10 of MIC>
-0.60

$$$$
>  <COMPOUND>
CCCCN(CC(=O)Nc1cc(N(C)C)c2c(c1O)C(=O)C1=C(O)[C@]3(O)C(=O)C(C(N)=O)=C(O)[C@@H](N(C)C)C3CC1C2)C(=O)OCOC(=O)C(C)C (some centres unmarked) [Example 1]

>  <log10 of MIC>
0.00

$$$$
>  <COMPOUND>
CCCN(CC(=O)Nc1cc(N(C)C)c2c(c1O)C(=O)C1=C(O)[C@]3(O)C(=O)C(C(N)=O)=C(O)[C@@H](N(C)C)[C@@H]3C[C@@H]1C2)C(=O)OCC [Example 15]

>  <log10 of MIC>
0.90

$$$$

Shifting focus to the compound that follows.
Problem: I have this compound here, CCCCN(CC(=O)Nc1cc(N(C)C)c2c(c1O)C(=O)C1=C(O)[C@]3(O)C(=O)C(C(N)=O)=C(O)[C@@H](N(C)C)C3CC1C2)C(=O)OCOC(=O)c1ccc(OC)cc1 (some centres unmarked) [Example 2] , and I need its recorded log10 of MIC.
Solution: 0.30
